Property: MIC; scope: individual compounds
test system: Staphylococcus aureus; assay: Antimicrobial activity against methicillin-resistant Staphylococcus aureus isolate 12-13 after 18 hrs by agar dilution assay; format: functional; details: isolate 12-13, 18 h

Reference set, count: 3
COc1ccc2c(c[n+]3c4c2ccc2c5c(cc(c24)CC3)OCO5)c1OCC(=O)C1CC1.[Br-]; > 64 µg/mL
COc1ccc2c(c[n+]3c4c2ccc2c5c(cc(c24)CC3)OCO5)c1OCC(=O)C12CC3CC(CC(C3)C1)C2.[Br-]; 4 µg/mL
COc1ccc2c(c[n+]3c4c2ccc2c5c(cc(c24)CC3)OCO5)c1NC(=O)c1ccccn1.[Cl-]; > 64 µg/mL

### Prompt Fill in MIC for record COc1ccc2c(c[n+]3c4c2ccc2c5c(cc(c24)CC3)OCO5)c1OC(C)=O.[Cl-]
### Response 4 µg/mL

### Prompt Read the entry COc1ccc2c(c[n+]3c4c2ccc2c5c(cc(c24)CC3)OCO5)c1OCC(=O)c1ccc(F)cc1.[Br-] and write its reported MIC.
### Response 8 µg/mL

### Prompt Report measured MIC; entry is CCC(=O)COc1c(OC)ccc2c1c[n+]1c3c2ccc2c4c(cc(c23)CC1)OCO4.[Br-]
### Response > 64 µg/mL

### Prompt Please list MIC recorded for the compound COc1ccc2c(c[n+]3c4c2ccc2c5c(cc(c24)CC3)OCO5)c1NC(=O)c1c(C)noc1C.[Cl-]
### Response > 64 µg/mL

### Prompt Please look at this compound and report its MIC: COc1ccc2c(c[n+]3c4c2ccc2c5c(cc(c24)CC3)OCO5)c1OCC(=O)c1ccc(C(F)(F)F)cc1.[Br-]
### Response > 64 µg/mL

Reference source: ChEMBL document CHEMBL4145598
